# MEASUREMENT_TARGET: Rap guanine nucleotide exchange factor 3 (Homo sapiens)
# EXPERIMENTAL_PROTOCOL: Confirmatory qHTS for agonist of cAMP-regulated guanine nucleotide exchange factor 3 (EPAC1) (AID 1645881); also: nearly all actives have a fitted effect of over 75% in size;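 as to activation: EPAC1 catalysed release of BODIPY-GDP from Rap1B seen as fluorescence loss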
# MEASUREMENT_PARAMETERS: EPAC1 Rap1B BODIPY-GDP exchange fluorescence; series mostly up to 154 µM
Inconclusive results are not listed. Active and inactive are the calls of the source. Calls follow the shape of the dose curve; as a rule, active = well fitted activation curve with a large enough effect; inconclusive = small, poorly fitted or top-dose-only effect; inactive = no such curve, though single readings can be large or run the other way.
Can you answer with just one of these options? Yes for active, No for inactive

Past entries and their recorded results:
GET /call?item= Nc1c(C(=O)c2ccccc2)sc2nsc(SCCN3CCOCC3)c12 returns the recorded outcome of this test.
No

GET /call?item= O=c1oc2cc(O)ccc2cc1-c1nc2ccccc2o1 returns the recorded outcome of this test.
Yes

GET /call?item= Cc1cnc(C(=O)N(c2ccc(N3CCOCC3)cc2)C2C(=O)Nc3ccccc3N=C2c2ccc(F)cc2)cn1 (configuration not stated) returns the recorded outcome of this test.
No

GET /call?item= CCC1CCCCN1CCCNC(=O)c1ccc(CS(=O)(=O)Cc2ccccc2F)o1 (configuration not stated) returns the recorded outcome of this test.
No

GET /call?item= COc1ccccc1C(CC(=O)N1CCCC1)c1ccc2c(c1)OCO2 (configuration not stated) returns the recorded outcome of this test.
No

Continuing:
GET /call?item= CN(Cc1ccccc1N1CCCC1)C(=O)c1cc2ccccc2o1 returns the recorded outcome of this test.
No

GET /call?item= CSC1=NC2(CCN(C(=O)NC3CCCCC3)CC2)N=C1c1ccc(C)cc1 returns the recorded outcome of this test.
No

GET /call?item= O=c1ccc(-c2ccccc2)nn1Cc1c(F)cccc1Cl returns the recorded outcome of this test.
No

GET /call?item= CCOC(=O)C1CCCN(C(=O)C(C)(C)Oc2ccc(Cl)cc2)C1 (configuration not stated) returns the recorded outcome of this test.
No

GET /call?item= Cc1ccc(C(=O)ONc2ccc(N=NC(=O)c3ccccc3O)cc2)cc1 returns the recorded outcome of this test.
No

GET /call?item= CCCNC(=O)C1CCN(S(=O)(=O)c2ccc3[nH]c(=O)ccc3c2)CC1 returns the recorded outcome of this test.
No

* * *

# MEASUREMENT_TARGET: Glucocorticoid receptor (Homo sapiens)
# EXPERIMENTAL_PROTOCOL: GR-EFC Redistribution (AID 451); also: potency is read from the fitted curve at half-maximal effect
# MEASUREMENT_PARAMETERS: CHO-K1 GR-EFC translocation, beta-gal luminescence, 2 h
Calls of active or inactive are those of the source. The call rests on the fitted dose curve.
ENDPOINT_LABEL: Potency

Take a look at these entries with their results.
Let me know recorded Potency for C=C1CC23C[C@H]4[C@@H]5[C@@]6(C)C[C@H](OC(=O)c7ccccc7)[C@@H](OC(C)=O)[C@]57[C@@H]2[C@@H](OC(C)=O)[C@H]1[C@@H](O)[C@H]3[C@H]7N4C6 , thanks.
> 20.6 µM (inactive)

Let me know recorded Potency for C[N+]1(C)CCC[C@H]1C(=O)[O-] , thanks.
> 20.6 µM (inactive)

Let me know recorded Potency for O=c1cc(-c2cccc(O)c2)oc2cc(O)ccc12 , thanks.
> 46 µM (inactive)

Continuing:
Let me know recorded Potency for O=c1cc(-c2ccc(O)cc2)oc2c([C@H]3O[C@@H](CO)[C@@H](O)[C@@H](O)[C@@H]3O)c(O)cc(O)c12 , thanks.
> 20.6 µM (inactive)

This collection of values is drawn from PubChem BioAssay (NCATS).
